Protocol Description: Human HepG2 cell viability assay in 384 well format
Type: toxicity, cell-based
Design: dose 125 nL, time 70.5 hour; concentration not given beside the values
Experimental Context: HepG2 cells, read-out: Inhibition
Observable: cytotoxicity at 70.5 h (%)
Lab book: enter the figure in %, no units written.

CC(C)(C)OC(=O)N1CCN(S(=O)(=O)CCCC#N)C2(CCCCC2)C1 ... -4.48
O=C(O)COc1ccc(CN2CCCC(Cc3cccnc3)C2)cc1 (stereo not drawn) ... -9.55

Given the compound CCc1c(O)nc(SC(C)CC)n(-c2ccccc2)c1=O (stereo not drawn) , what is its reported cytotoxicity at 70.5 h?
-7.78
